Data provenance: the DeepSol protein solubility set

assay-text: soluble on expression in E. coli; label from the status in PepcDB or PDB records
measure: soluble on expression in E. coli

{"seq-text": "MNKKNKFFDIYLELEQDITSGVYPAGTLLPSENVLAKRFSVSRETIRKALVLLLENGCIQKLQGKGSIVIDRERYSFPVSGLTSFKELQKSEQMNATTEVIRNEETTLPDRIADFAGLPHGSNCLAILRVRYLEGEATILDYDYLLDKTEPIANEILEDSLYQYLENEKGYEISYAQKEITVEPLNAEDKKYLALHGDTHVVVVKSTVFLKDTTLFQYTESRHRLDKFRFIDFARRR", "measure": "soluble on expression in E. coli", "measured-value": "not soluble"}
{"seq-text": "MGSDKIHHHHHHMEVKPFRPLIYRKEIDGMISPPFDAITPKQEIELKRNPYNITYLTLPKGRDGVSHARMIMENWIENGVLLRAERDCIIVLKQIFSANSRRITRYGIIARVRVFPENGDVIPHERTFDEFVRDREILMEGIGSQLEPIFLVTLKNELPQYLKIITENMKEDNRYFGPENVENYVYYIYDHKEIQKISNILRNDIAIVADGHHRLQATKNIASRQSGLAREFWSYAMSYVTSIHDEGVLIGGVHRVISSRFRFDADRASKYFYVDQCDTIAGNDPVIYDGRFYCIRPRENVYDNIIDSLNDFLFSKTIGMSTIDLERDVIYTHDYAEVVNLVNSGSFSFGVIMPDWDKAHLVELLLTRKILPQKSTYFYPKIPSGISIDSISEFIVT", "measure": "soluble on expression in E. coli", "measured-value": "not soluble"}
{"seq-text": "MGLELPLILGTSSVFRREQMERLGIAFQAASPDFDETPMLGESAPQTALRLAEGKARSLTGRFPEALIVGADQVAWCDGRQWGKPMNLANAQKMLMHLSGREIEFYSAIVLLNTVTGRMRRHIDKTVVVMRQLDELHILRYLEREPDAVYCSCALKSEDLGALLIERIESTDPNALIGLPVFRLVDFLKNEGVEVL", "measure": "soluble on expression in E. coli", "measured-value": "not soluble"}
{"seq-text": "KNASVITVGNEILKGRTVNTNAAFIGNFLTYHGYQVRRGFVVMDDLDEIGWAFRVALEVSDLVVSSGGLGPTFDDMTVEGFAKCIGQDLRIDEDALAMIKKKYGQADLTPQRLKMAKIPPSCRPIENPVGTAPGLICAVGGKKVIILPGVPKEMEALLKAMEKDIIIPD", "measure": "soluble on expression in E. coli", "measured-value": "soluble"}
{"seq-text": "MSLGNFHTMLDALLEDQEEAVLATIVQVEGSAYRKAGASMLFKKKGRRIGLLSGGCVEEDVFQRISALGDQLTSTLIPYDMRSEDDLSWGMGAGCNGIIHVHAERITQEKRRHYEKVRDCLHSGKAVTSVIKIESSHYLFLTENGHFGNWPDAPLQDIQRTVSTLHLPHFDQTTNMFIQRIEPKPRLILFGAGPDNVPLANLAADTGFSVIVTDWRPAYCTSSLFPKADQLITAFPEQMLSEFQFFPHDAAVVATHHYQHDQTIINFLFSQNLHYIGLLGSANRTKRLLSGKHPPSHFYSPVGLKIGAEGPEEIAVSVVAEIIQTRKRVAVVEGGSHHHHHH", "measure": "soluble on expression in E. coli", "measured-value": "soluble"}
{"seq-text": "MSKRNTQLRRHAISNMVNELGEVSVDELAQKFETSEVTIRKDLASLEKNGQLLRRYGGAIAIPTEVIHEELSSNVSTRKLSLAKAAASLIRDHNRIVIDSGSTTAALIQQLNDKRGLVVMTNSLHVANALNELESEPTLLMTGGTWDTHSESFQGKVAESVLRAYDFDQLFIGADGIDLERGTTTFNELVGLSKVMAEVSREVIVMIESEKIGRKIPNLELAWHQIDVLVTDADIQPEHKVQIEQHGVKVICALEHHHHHH", "measure": "soluble on expression in E. coli", "measured-value": "soluble"}
{"seq-text": "MEPYVGIVIFELAKSNTSPEENNSFFREDFYIVYADSEEAAHKLVEKRAHEEETPKNAAQDSGPTVTLRHIIDVAPALYGYVDKDCNLYSRHFASLEDYARFEMMLGGKDPLSH", "measure": "soluble on expression in E. coli", "measured-value": "soluble"}
